Source of measurements: patent US8785457B2

The following molecules are shown together with reported pIC50 values.
Target: mTOR (Homo sapiens)
Construct: endogenous in cells; host or cells: Jurkat, clone E6-1 (ATCC TIB-152) cell lysate
Assay: mTOR kinobeads assay (competitive binding in Jurkat cell lysate, immunodetection)
Conditions: kinobeads assay, Table 4; read-out: Inhibition values (IC50) mTor
pIC50: −log10 of the molar value.

| cpd_smiles | value |
| --- | --- |
| CCNC(=O)Nc1ccc(-c2nc3c(c(N4CCOC[C@@H]4C)n2)CNC3)cc1 | > 7.00 |
| C[C@H]1COCCN1c1nc(-c2ccc(NC(=O)NC3CC3)cc2)nc2c1CCNC2 | > 7.00 |
| CCNC(=O)Nc1ccc(-c2nc3c(c(N4CCOC[C@@H]4C)n2)CCN(C(=O)C2CC2)C3)cc1 | > 7.00 |

Now examine the next entry.
Request: Return reported pIC50; argument: C[C@H]1COCCN1c1nc(-c2ccc(NC(=O)NCCN(C)C)cc2)nc2c1CN(C)C2
Result: 6.00 to 7.00

---

Biological target: mTOR (Homo sapiens, UniProt P42345)
Construct: endogenous in cells; host or cells: Jurkat, clone E6-1 (ATCC TIB-152) cell lysate
Experiment: mTOR kinobeads assay (competitive binding in Jurkat cell lysate, immunodetection)
Details: kinobeads assay, Table 6; read-out: Inhibition values (IC50) mTOR
pIC50: −log10 of the molar value.
recorded_endpoint: pIC50

Previously resolved entries follow.
| cpd_smiles | pIC50 |
| --- | --- |
| CNC(=O)Nc1ccc(-c2nc3c(c(N4CCOC[C@@H]4C)n2)CNCC3)cc1 | 6.00 to 7.00 |
| CCNC(=O)Nc1ccc(-c2nc3c(c(N4CCOC[C@@H]4C)n2)CN(C(=O)C2CC2)C3)cc1 | > 7.00 |
| C[C@H]1COCCN1c1nc(-c2ccc(NC(N)=O)cc2)nc2c1CN(C=O)C2 | 6.00 to 7.00 |

Request: Could you tell me which pIC50 is on file for C[C@H]1COCCN1c1nc(-c2ccc(NC(=O)NC3CC3)cc2)nc2c1CCNC2 ?
Result: > 7.00

Request: Follow-up item: C[C@H]1COCCN1c1nc(-c2ccc(NC(N)=O)cc2)nc2c1CNC2
Result: > 7.00

Request: Also check CC(C)NC(=O)Nc1ccc(-c2nc3c(c(N4CCOC[C@@H]4C)n2)CN(CC2CC2)C3)cc1
Result: 6.00 to 7.00

Request: Continue with CCNC(=O)Nc1ccc(-c2nc3c(c(N4CCOC[C@@H]4C)n2)CCN(C(C)=O)C3)cc1
Result: > 7.00

Request: Subsequent entry: CC(C)C(=O)N1Cc2nc(-c3ccc(NC(=O)NC4CC4)cc3)nc(N3CCOC[C@@H]3C)c2C1
Result: > 7.00

---

The following compounds are shown together with reported pIC50 values.
Target: mTOR (Homo sapiens, UniProt P42345)
Construct: endogenous in cells; host or cells: Jurkat, clone E6-1 (ATCC TIB-152) cell lysate
Test: mTOR kinobeads assay (competitive binding in Jurkat cell lysate, immunodetection)
Conditions: kinobeads assay, Table 4; read-out: Inhibition values (IC50) mTor
pIC50: −log10 of the molar value.

Consider the reported pIC50 for these compounds:
| compound | pIC50 |
| --- | --- |
| CCOC(=O)N1Cc2nc(-c3ccc(NC(=O)NC4CC4)cc3)nc(N3CCOC[C@@H]3C)c2C1 [Example 34] | > 7.00 |
| CCNC(=O)Nc1ccc(-c2nc3c(c(N4CCOC[C@@H]4C)n2)CCNC3)cc1 [Example 13] | > 7.00 |
| CCNC(=O)Nc1ccc(-c2nc3c(c(N4CCOC[C@@H]4C)n2)CN(C(=O)C2CC2)C3)cc1 [Example 23] | > 7.00 |

Request: Can you look up pIC50 on mTOR (Homo sapiens, UniProt P42345) for C[C@H]1COCCN1c1nc(-c2ccc(NC(=O)NC3CCC3)cc2)nc2c1CN(C)C2 [Example 55] ?
Result: 6.00 to 7.00
